# test.system: V1 Recepter (rat liver plasma membrane preparations) (Rattus norvegicus, UniProt P30560)
# Construct: rat liver plasma membrane preparations
# Sequence (P30560 whole entry): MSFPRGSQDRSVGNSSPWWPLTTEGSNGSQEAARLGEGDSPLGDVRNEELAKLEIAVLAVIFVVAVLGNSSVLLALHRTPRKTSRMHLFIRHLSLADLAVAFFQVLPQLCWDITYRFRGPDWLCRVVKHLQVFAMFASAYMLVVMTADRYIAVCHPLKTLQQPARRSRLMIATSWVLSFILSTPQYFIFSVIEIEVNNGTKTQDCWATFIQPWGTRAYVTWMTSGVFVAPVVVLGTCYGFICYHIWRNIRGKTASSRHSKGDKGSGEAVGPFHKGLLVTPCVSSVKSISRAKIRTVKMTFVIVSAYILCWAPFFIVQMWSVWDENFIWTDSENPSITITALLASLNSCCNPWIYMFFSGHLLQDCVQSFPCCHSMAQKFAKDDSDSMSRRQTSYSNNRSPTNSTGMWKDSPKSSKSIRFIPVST
# experiment: V1 Recepter binding assay
# test.conditions: [3H]-Arg-vasopressin 2×10^-10 M, 37° C., 10 minutes, pH 8.0, rat liver plasma membrane
# label = true if IC50 < 9 nM else false

>  <compound>
CNC(=NC#N)NCCOC1CCCN(C(=O)c2ccc(NC(=O)c3ccccc3Cl)cc2OC)c2ccc(Cl)cc21 (stereo not shown) [Example 149]

>  <answer.label>
false

$$$$
>  <compound>
CNC(=S)NCCOC1CCCN(C(=O)c2ccc(NC(=O)c3ccccc3Cl)cc2OC)c2ccc(Cl)cc21 (stereo not shown) [Example 133]

>  <answer.label>
false

$$$$
>  <compound>
COc1cc(NC(=O)c2ccccc2Cl)ccc1C(=O)N1CCCC(CC(=O)N2CCCN(C)CC2)c2cc(Cl)ccc21 (stereo not shown) [Example 125]

>  <answer.label>
true

$$$$
>  <compound>
COc1cc(NC(=O)c2ccccc2Cl)ccc1C(=O)N1CCCC(OCCS(=O)(=O)c2ccncc2)c2cc(Cl)ccc21 (stereo not shown) [Example 142]

>  <answer.label>
false

$$$$
>  <compound>
COc1cc(NC(=O)c2ccccc2Cl)ccc1C(=O)N1CCCC(CC(=O)NCCC2CCCN2C)c2cc(Cl)ccc21 (stereo not shown) [Example 155]

>  <answer.label>
true

$$$$
>  <compound>
COc1cc(NC(=O)c2ccccc2Cl)ccc1C(=O)N1CCCC(CC(=O)NCc2ccccn2)c2cc(Cl)ccc21 (stereo not shown) [Example 126]

>  <answer.label>
false

$$$$

----------
# test.system: V2 Recepter (rat kidney plasma membrane preparations) (Rattus norvegicus)
# Construct: rat kidney plasma membrane preparations; from tissue; host or cells: rat kidney plasma membranes
# Sequence (Q00788 whole entry): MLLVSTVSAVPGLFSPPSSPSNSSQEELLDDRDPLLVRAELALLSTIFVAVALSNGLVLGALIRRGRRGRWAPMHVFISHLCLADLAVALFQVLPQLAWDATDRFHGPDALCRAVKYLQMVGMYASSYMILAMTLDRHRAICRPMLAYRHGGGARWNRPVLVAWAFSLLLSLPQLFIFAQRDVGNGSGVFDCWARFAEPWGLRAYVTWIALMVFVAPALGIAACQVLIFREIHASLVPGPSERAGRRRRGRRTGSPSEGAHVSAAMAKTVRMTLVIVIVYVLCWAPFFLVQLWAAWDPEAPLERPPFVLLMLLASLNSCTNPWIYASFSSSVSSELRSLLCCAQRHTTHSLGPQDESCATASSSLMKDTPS
# experiment: V2 Recepter binding assay
# test.conditions: [3H]-Arg-vasopressin 4×10^-10 M, 4° C., pH 8.0, rat kidney plasma membrane
pIC50: −log10 of the molar value.
Could you label it true (1) if measured pIC50 is 8 or higher, and false (0) otherwise?

>  <compound>
CCN1CCN(C(=O)CCOC2CCCN(C(=O)c3ccc(N4Cc5ccccc5C4=O)cc3)c3ccc(Cl)cc32)CC1 (centres unmarked)

>  <test.system>
V2 Recepter (rat kidney plasma membrane preparations) (Rattus norvegicus)

>  <answer.label>
false (0)

$$$$
>  <compound>
COc1cc(NC(=O)c2ccccc2Cl)ccc1C(=O)N1CCCC(NC(=O)c2ccccc2Cl)c2cc(Cl)ccc21 (centres unmarked)

>  <test.system>
V2 Recepter (rat kidney plasma membrane preparations) (Rattus norvegicus)

>  <answer.label>
false (0)

$$$$
>  <compound>
CCN(CC)CCOC1CCCN(C(=O)c2ccc(N3Cc4ccccc4C3=O)cc2)c2ccc(Cl)cc21 (centres unmarked)

>  <test.system>
V2 Recepter (rat kidney plasma membrane preparations) (Rattus norvegicus)

>  <answer.label>
false (0)

$$$$
>  <compound>
COc1cc(NC(=O)c2ccccc2Cl)ccc1C(=O)N1CCCC(CC(=O)NCCC2CCCN2C)c2cc(Cl)ccc21 (centres unmarked)

>  <test.system>
V2 Recepter (rat kidney plasma membrane preparations) (Rattus norvegicus)

>  <answer.label>
true (1)

$$$$
>  <compound>
COc1cc(NC(=O)c2ccccc2Cl)ccc1C(=O)N1CCCC(OCCNC(N)=O)c2cc(Cl)ccc21 (centres unmarked)

>  <test.system>
V2 Recepter (rat kidney plasma membrane preparations) (Rattus norvegicus)

>  <answer.label>
true (1)

$$$$
>  <compound>
COc1cc(NC(=O)c2ccccc2Cl)ccc1C(=O)N1CCCC(OCCNS(C)(=O)=O)c2cc(Cl)ccc21 (centres unmarked)

>  <test.system>
V2 Recepter (rat kidney plasma membrane preparations) (Rattus norvegicus)

>  <answer.label>
true (1)

$$$$
>  <compound>
COc1cc(NC(=O)c2ccccc2Cl)ccc1C(=O)N1CCCC(CC(=O)NCCN2CCCCC2)c2cc(Cl)ccc21 (centres unmarked)

>  <test.system>
V2 Recepter (rat kidney plasma membrane preparations) (Rattus norvegicus)

>  <answer.label>
true (1)

$$$$
>  <compound>
COc1cc(NC(=O)c2ccccc2Cl)ccc1C(=O)N1CCCC(CC(=O)N(C)CCO)c2cc(Cl)ccc21 (centres unmarked)

>  <test.system>
V2 Recepter (rat kidney plasma membrane preparations) (Rattus norvegicus)

>  <answer.label>
true (1)

$$$$
>  <compound>
CC(=O)NC1CCN(CCOC2CCCN(C(=O)c3ccc(NC(=O)c4ccccc4Cl)cc3C)c3ccc(Cl)cc32)CC1 (centres unmarked)

>  <test.system>
V2 Recepter (rat kidney plasma membrane preparations) (Rattus norvegicus)

>  <answer.label>
false (0)

$$$$
>  <compound>
C=CCNCCOC1CCCN(C(=O)c2ccc(NC(=O)c3ccccc3Cl)cc2OC)c2ccc(Cl)cc21 (centres unmarked)

>  <test.system>
V2 Recepter (rat kidney plasma membrane preparations) (Rattus norvegicus)

>  <answer.label>
true (1)

$$$$
>  <compound>
COc1cc(NC(=O)c2ccccc2Cl)ccc1C(=O)N1CCCC(OCCSc2nccc(C)n2)c2cc(Cl)ccc21 (centres unmarked)

>  <test.system>
V2 Recepter (rat kidney plasma membrane preparations) (Rattus norvegicus)

>  <answer.label>
false (0)

$$$$

----------
The following compounds each carry a recorded pIC50 for Oxytocin receptor (uterin muscle membrane preparation) (Rattus norvegicus).
pIC50: −log10 of the molar value.
metric.name: pIC50

>  <compound>
COc1cc(NC(=O)c2ccccc2Cl)ccc1C(=O)N1CCCC(OCCNC(C)=N)c2cc(Cl)ccc21 (centres unmarked)

>  <readout.number>
6.84

$$$$
>  <compound>
COc1cc(NC(=O)c2ccccc2Cl)ccc1C(=O)N1CCCC(OCC[S+]([O-])c2ccncc2)c2cc(Cl)ccc21 (centres unmarked)

>  <readout.number>
6.70

$$$$
>  <compound>
COc1cc(NC(=O)c2ccccc2Cl)ccc1C(=O)N1CCCC(OCCn2cncn2)c2cc(Cl)ccc21 (centres unmarked)

>  <readout.number>
6.41

$$$$
>  <compound>
C#CCNCCC1CCCN(C(=O)c2ccc(NC(=O)c3ccccc3Cl)cc2C)c2ccc(Cl)cc21 (centres unmarked)

>  <readout.number>
5.52

$$$$
>  <compound>
CC(=O)NC1CCN(CCCCOc2ccc(Cl)c(C(=O)Nc3ccc(C(=O)N4CCCCc5cc(Cl)ccc54)cc3)c2)CC1

>  <readout.number>
5.44

$$$$

----------
The following compounds each carry a recorded IC50 for Oxytocin receptor (uterin muscle membrane preparation) (Rattus norvegicus).
metric.name: IC50

>  <compound>
Cc1cc(NC(=O)c2ccccc2Cl)ccc1C(=O)N1CCCC(CC(N)=O)c2cc(Cl)ccc21 (stereo not drawn) [Example 123]

>  <result>
2200 nM

$$$$
>  <compound>
C=CCNCCOC1CCCN(C(=O)c2ccc(NC(=O)c3ccccc3Cl)cc2OC)c2ccc(Cl)cc21 (stereo not drawn) [Example 169]

>  <result>
147 nM

$$$$
>  <compound>
Cc1cc(NC(=O)c2ccccc2Cl)ccc1C(=O)N1CCCC(CCN2CCCC2)c2cc(Cl)ccc21 (stereo not drawn) [Example 97]

>  <result>
4070 nM

$$$$
>  <compound>
COc1cc(NC(=O)c2ccccc2Cl)ccc1C(=O)N1CCCC(CC(=O)NCCN2CCCCC2)c2cc(Cl)ccc21 (stereo not drawn) [Example 156]

>  <result>
70 nM

$$$$
>  <compound>
CNC(=O)N1CCN(CCC2CCCN(C(=O)c3ccc(NC(=O)c4ccccc4Cl)cc3OC)c3ccc(Cl)cc32)CC1 (stereo not drawn) [Example 148]

>  <result>
225 nM

$$$$
>  <compound>
COc1cc(NC(=O)c2ccccc2Cl)ccc1C(=O)N1CCCC(OCCNCc2ccccc2)c2cc(Cl)ccc21 (stereo not drawn) [Example 150]

>  <result>
471 nM

$$$$
>  <compound>
COc1cc(NC(=O)c2ccccc2Br)ccc1C(=O)N1CCCC(CC(=O)N2CCCC2)c2cc(F)ccc21 (stereo not drawn) [Example 114]

>  <result>
170 nM

$$$$
>  <compound>
CC(=O)N1CCN(CCC2CCCN(C(=O)c3ccc(NC(=O)c4ccccc4C)cc3Cl)c3ccc(Cl)cc32)CC1 (stereo not drawn) [Example 174]

>  <result>
1050 nM

$$$$
>  <compound>
COc1cc(NC(=O)c2ccccc2Cl)ccc1C(=O)N1CCCC(CC(=O)NCc2ccccn2)c2cc(Cl)ccc21 (stereo not drawn) [Example 126]

>  <result>
73 nM

$$$$
>  <compound>
COc1cc(NC(=O)c2ccccc2Cl)ccc1C(=O)N1CCCC(CC(=O)N2CCN(CC#N)CC2)c2cc(Cl)ccc21 (stereo not drawn) [Example 80]

>  <result>
84 nM

$$$$
>  <compound>
CN1CCN(C(=O)CC2CCCN(C(=O)c3ccc(NC(=O)c4ccccc4)cc3)c3ccc(Cl)cc32)CC1 (stereo not drawn) [Example 178]

>  <result>
969 nM

$$$$
>  <compound>
Cc1ccccc1C(=O)Nc1ccc(C(=O)N2CCCC(CC(=O)N3CCN(C)CC3)c3cc(Cl)ccc32)cc1 (stereo not drawn) [Example 109]

>  <result>
360 nM

$$$$

----------
# test.system: V2 Recepter (rat kidney plasma membrane preparations) (Rattus norvegicus)
# Construct: rat kidney plasma membrane preparations
# experiment: V2 Recepter binding assay
# test.conditions: [3H]-Arg-vasopressin 4×10^-10 M, 4° C., pH 8.0, rat kidney plasma membrane
metric.name: IC50 (nM)

>  <molecule>
COc1cc(C(=O)N2CCCC(CC(=O)NCCN3CCOCC3)c3cc(Cl)ccc32)ccc1NC(=O)c1ccccc1Br (stereo not shown) [Example 164]

>  <readout.number>
8.5

$$$$
>  <molecule>
Cc1cc(NC(=O)c2ccccc2Cl)ccc1C(=O)N1CCCC(OCCn2cncn2)c2cc(Cl)ccc21 (stereo not shown) [Example 92]

>  <readout.number>
7.4

$$$$
>  <molecule>
COc1cc(NC(=O)c2ccccc2Cl)ccc1C(=O)N1CCCC(OCCn2ccnc2)c2cc(Cl)ccc21 (stereo not shown) [Example 171]

>  <readout.number>
15

$$$$
>  <molecule>
C=CCNCCC1CCCN(C(=O)c2ccc(NC(=O)c3ccccc3Cl)cc2C)c2ccc(F)cc21 (stereo not shown) [Example 101]

>  <readout.number>
7

$$$$
